Target: T1, recombinant protein CDH6 (UniProt P55285 54-615)
T1 construct: also called CDH6 recombinant protein; CDH6 antigen
T1 sequence (looked up): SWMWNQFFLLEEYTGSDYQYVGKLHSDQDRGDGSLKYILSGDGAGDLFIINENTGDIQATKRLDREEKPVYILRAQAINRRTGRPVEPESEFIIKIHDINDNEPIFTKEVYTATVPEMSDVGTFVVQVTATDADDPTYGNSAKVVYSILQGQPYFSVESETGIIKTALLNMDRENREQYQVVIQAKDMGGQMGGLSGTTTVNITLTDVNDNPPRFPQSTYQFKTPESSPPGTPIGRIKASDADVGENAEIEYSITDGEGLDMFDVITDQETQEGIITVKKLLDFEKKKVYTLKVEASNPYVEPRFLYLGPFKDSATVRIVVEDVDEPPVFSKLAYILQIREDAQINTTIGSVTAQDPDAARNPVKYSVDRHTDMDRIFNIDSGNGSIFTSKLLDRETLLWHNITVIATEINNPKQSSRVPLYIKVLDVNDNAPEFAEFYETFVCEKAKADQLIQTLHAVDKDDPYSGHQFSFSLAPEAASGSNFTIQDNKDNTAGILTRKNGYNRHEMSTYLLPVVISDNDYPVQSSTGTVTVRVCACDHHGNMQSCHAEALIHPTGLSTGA
Experiment: ELISA, CDH6 coated; antibody 0.10 ng/mL
recordedMetric: OD450 (OD450)
Respond with the bare value in OD450.

Please fill in: OD450 reported for CL069066 antibody (antibody, V domains shown, Mouse monoclonal antibody from hybridoma, purified from ascites with Protein A/G; also called #4; No. 4) VH: EVKLLESGGGLVQPGGSLKLSCAASGFDFSRYWMTWVRQAPGKGLEWIGEINPDSSTINYTPSLKDKFIISRDNAKNTLYLQMNKVTSEDTALYYCTRRPHYYGYFDSWGQGTTLTVSS VL: DIVLTQSPASLAVSLGQRATISCRASESVEYYGTTLMQWYQQKPGQPPQLLIYAGSNVESGVPARFSGSGSGTEFSLNIHPVEEDDIGMYFCQQSRKVPWTFGGGTKLEIK = 0.048
